Assignment: determine reported %Inh for the given compounds.
# System: MINK
# Construct: gene MINK1
# applied_conditions: concentration: 1 μM, replicates: in singlicate; n = 1
Answer with a number only, understood to be in %.

For reference, reported %Inh for CN1c2ccc(-c3ccc(C(=O)NCCO)cc3)cc2-c2[nH]ncc2S1(=O)=O stands at 46

Query Cn1ccc2ncnc(Oc3ccc(NC(=O)Nc4cccnc4)c(Cl)c3)c21 yields %Inh of 0

Looking up Cc1ccc(O)cc1Nc1cc(C(F)(F)F)nc2ccc(-c3ccncc3)cc12 , I found its %Inh recorded as 0

# %Inh of Nc1nc(-c2cccnc2)c(-c2ccnc3ccccc23)s1 = 51

Briefly, %Inh measured for OCCOCCn1ccc2ncnc(Nc3ccc(Oc4cccc(Cl)c4)c(Cl)c3)c21 : 0

----------
# System: WEE1
# applied_conditions: concentration: 1 μM, replicates: in singlicate; n = 1
So I've got a bunch of molecules here, and I need their %Inh values.
Just the number please, in %, no unit attached.

Considering NC(=O)c1sc(-n2cnc3ccccc32)cc1OCc1ccccc1F , its %Inh with WEE1 was recorded as 7

%Inh on WEE1 for Nc1nccc2scc(-c3ccc4c(c3)CCN4C(=O)Cc3cc(F)ccc3F)c12 is 44

Entry O=C(Nc1n[nH]c2nc(-c3ccco3)c(Br)cc12)c1ccc(CN2CCCC2)cc1.O=C(O)[C@H](O)[C@@H](O)C(=O)O under WEE1 had %Inh of 0

The molecule COC(=O)c1c(-c2ccccc2)c2cc(Cl)ccc2c(=O)n1Cc1ccc(S(C)(=O)=O)cc1 , when measured on WEE1, yielded %Inh of 0

Query Clc1cc(Nc2ncnc3cc[nH]c23)ccc1OCc1ccccn1 on WEE1; %Inh returned: 0

# value of %Inh, WEE1, item Cl.Cn1ccc(-c2cccc(Nc3ccnc4cc(-c5nccs5)ccc34)c2)n1 = 11

Summary: Cn1ccc2ncnc(Nc3ccc(Oc4cccc(Cl)c4)c(Cl)c3)c21 , WEE1, %Inh = 0

Given the molecule Cc1cc(N2CCC(NS(=O)(=O)c3ccc(F)cc3)CC2)nc(Nc2cccc(C#N)c2)n1.O=C(O)C(F)(F)F and test system WEE1, the measured %Inh is 10

Record Cc1ccc(O)cc1Nc1cc(C(F)(F)F)nc2ccc(-c3ccncc3)cc12 / WEE1, %Inh recorded as 0

----------
# Tested on: RIOK1
# applied_conditions: concentration: 1 μM, replicates: in singlicate; n = 1
I would appreciate it if you labelled entries met when %Inh is 20% or higher, otherwise not met.

Prompt: Please indicate if the recorded %Inh for O=c1cc(N2CCOCC2)nc2n(Cc3cccc(Cl)c3)ccn12 meets or exceeds 20%.
Response: not met

Prompt: Assess whether reported %Inh for Nc1n[nH]c2nnc(-c3ccccc3)cc12 sits at 20% or higher.
Response: met

Prompt: Has Clc1ccc(-c2cc(-c3c[nH]nc3-c3ccccn3)ccn2)cc1 a recorded %Inh greater than or equal to 20%?
Response: not met

Prompt: Evaluate CCc1nc(-c2cccc(N(C)S(=O)(=O)c3ccccc3)c2)c(-c2ccnc(Nc3ccc(N4CCN(C(C)=O)CC4)nc3)n2)s1 : %Inh at minimum 20%?
Response: not met

Prompt: Dear colleague, could you confirm whether Nc1nc(-c2ccc3c(N)n[nH]c3c2)cc(N2CCC[C@@H](C(=O)Nc3ccccc3)C2)n1.O=C(O)C(F)(F)F.O=C(O)C(F)(F)F has %Inh at or above 20%?
Response: met

Prompt: Determine whether this compound has %Inh no lower than 20%: CC(C)N1CCC(n2cnc(-c3ccc(F)cc3)c2-c2ccnc(N)n2)CC1
Response: not met

Prompt: hey, is %Inh for this one >= 20%? O=C(Nc1ccccc1)Nc1ccc(Oc2ccc3nccn3n2)cc1
Response: met

Prompt: Form field: %Inh at least 20%? Entry: O=C(NCCCN1CCCC1=O)c1cnc(NCc2cc(Cl)ccc2Cl)nc1NC1CCNCC1
Response: not met

Prompt: Could you please find out whether Nc1nc(-c2cccnc2)c(-c2ccnc3ccccc23)s1 has %Inh that meets 20% or exceeds it?
Response: met

----------
# Tested on: RSK3(Kin.Dom.2-C-terminal)
# Construct: gene RPS6KA2
# applied_conditions: concentration: 1 μM, replicates: in singlicate; n = 1
For each record, write down the corresponding %Inh.
Record the value in %, omitting the unit from your answer.

# compound COc1ccc(Nc2nccc(N3CCC(NC(=O)Nc4ccc5c(c4)OCO5)C3)n2)cc1 (stereo not drawn) ; its %Inh = 19

Lab book: %Inh of CNc1nccc(-c2c(-c3ccc(F)cc3)ncn2C2CCN(C)CC2)n1 noted as 0

Consider CSc1ccc(NC2=C(c3ccccc3Cl)C(=O)NC2=O)cc1 . Its measured %Inh is 0

Looking up COc1ccc(-c2nc3n(c2-c2ccncc2)CCC3)cc1 , I found its %Inh recorded as 0

What the record says about N#Cc1ccc(Oc2ccc(Nc3ncnc4cc[nH]c34)cc2Cl)cc1 : %Inh is 23

Lab book: %Inh of CSc1nn2c(=O)cc(N3CCOCC3)nc2n1Cc1cccc(Cl)c1Cl noted as 0

So for C[C@H]1CC[C@@H](C(=O)Nc2ccccc2)CN1c1cc(-c2ccc3c(N)n[nH]c3c2)nc(N)n1 , the logged %Inh turned out to be 9

For record O=C(Nc1ccccc1)Nc1ccc(Oc2ccc3nccn3n2)cc1 the listed %Inh is 0

For this compound ( COc1ccc(NC(=O)Nc2ccc(C)c(-c3ccc(C(=O)Nc4ccncc4)cc3)c2)cc1 ), measured %Inh is 0

----------
# Tested on: NIM1;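 also: kd values determined as follow-up on hits from a single-replicate KINOMEscan panel screen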
# Construct: gene MGC42105
pKd: −log10 of the molar value.
property_measured: pKd

Reported pKd for CC(=O)Nc1n[nH]c2ncc(-c3ccccc3)cc12 was < 5.00

----------
Please provide measured %Inh for the entries that follow.
# System: HPK1
# applied_conditions: concentration: 1 μM, replicates: in singlicate; n = 1
Use % as the unit, but write only the number.

Field %Inh (HPK1), entry O=C(Nc1n[nH]c2nc(-c3ccco3)c(Br)cc12)c1ccc(CN2CCCC2)cc1.O=C(O)[C@H](O)[C@@H](O)C(=O)O : 17

Item Nc1nc(-c2ccccn2)c(-c2ccnc3ccccc23)s1 was tested on HPK1; the reported %Inh is 20

%Inh on HPK1 for Cn1ccc2ncnc(Oc3ccc(NC(=O)Nc4cccnc4)c(Cl)c3)c21 is 11

Result for COc1ccc(Nc2nccc(N3CCC(NC(=O)Nc4ccc5c(c4)OCO5)C3)n2)cc1 (stereo not shown) , tested on HPK1, %Inh: 67

----------
# Tested on: PAK4
# applied_conditions: concentration: 1 μM, replicates: in singlicate; n = 1
property_measured: %Inh
Form entry: enter the amount, then its unit.

Reported %Inh ( COc1ccc(-c2oc3ncnc(N)c3c2-c2ccc(OC)cc2)cc1 ) = 0%

What the record says about COC(=O)c1c(-c2ccccc2)c2cc(Cl)ccc2c(=O)n1Cc1ccc(S(C)(=O)=O)cc1 : %Inh is 0%

Entry O=C(Nc1n[nH]c2nc(-c3ccco3)c(Br)cc12)c1ccc(CN2CCCC2)cc1.O=C(O)[C@H](O)[C@@H](O)C(=O)O ; %Inh = 0%

For reference, reported %Inh for COc1ccc(Nc2nccc(N3CCC(NC(=O)c4cccc(NC(C)=O)c4)C3)n2)cc1 (centres unmarked) stands at 0%

Per the record, CSc1ccc(NC2=C(c3ccccc3Cl)C(=O)NC2=O)cc1 has %Inh of 29%

So for FC(F)(F)c1ccc(-c2nn3ncccc3c2-c2ccnc(Nc3cccc(C(F)(F)F)c3)n2)cc1 , the logged %Inh turned out to be 7%

So, Cl.O=S(=O)(c1cccc(F)c1)c1ccc(Nc2ncnc3cc(Br)sc23)cc1Cl ? Its %Inh was 1%

So for C[C@H]1CC[C@@H](C(=O)Nc2ccccc2)CN1c1cc(-c2ccc3c(N)n[nH]c3c2)nc(N)n1 , the logged %Inh turned out to be 0%

For reference, reported %Inh for CCn1c(-c2ccncc2)nc2cnccc21 stands at 0%

What the record says about Cc1ccc(NC(=O)c2cccc(C#N)c2)cc1-c1ccc(C(=O)Nc2ccncc2)cc1 : %Inh is 0%

Noted for CS(=O)(=O)CCNCc1nc(-c2ccc3ncnc(Nc4ccc(OCc5cccc(F)c5)c(Cl)c4)c3c2)cs1.Cl : its %Inh reads 0%

The reported %Inh of the compound CC(=O)Nc1n[nH]c2ncc(-c3ccccc3)cc12 was 4%

Note to self: %Inh recorded for Nc1nc(-c2ccc3c(N)n[nH]c3c2)cc(N2CCC[C@@H](C(=O)Nc3ccccc3)C2)n1.O=C(O)C(F)(F)F.O=C(O)C(F)(F)F was 0%

Input O=C(c1ccc(-c2cc(-c3c[nH]nc3-c3ccccn3)ccn2)cc1)N1CCCC1 . Output %Inh: 16%

Measured %Inh of COc1cc2c(Nc3cccc(NC(=O)c4ccccc4)c3)ncnc2cc1OCCCN1CCOCC1 : 0%

So, Cc1cccc(-c2nc(Nc3ccc4[nH]nnc4c3)c3ccccc3n2)n1 ? Its %Inh was 0%

# %Inh of Cn1ccc2ncnc(Oc3ccc(NC(=O)Nc4cccnc4)c(Cl)c3)c21 = 1%
